assay: Epimerization kinetics / rotational energy barrier of atropisomers in solvents; type: physicochemical; conditions: 3-methyl-1-butanol/water 91/9 w/w %, t1/2 at 20° C.
assayEndpoint: half-life (days)
Write the value in days as a bare number.

Requested read-out: half-life. Entry: `C=CC(=O)N[C@H]1CCC[C@H]1NC(=O)c1sc2nccc3c2c1NC(=O)N3c1cnc(CC(C)C)cc1C` 1460

---

assay: Aqueous solubility at pH 2 and pH 7; assay type: physicochemical; conditions: aqueous medium at pH 2, simulated gastric fluid; Table 4; pH 2; read-out: Solubility pH 2
assayEndpoint: Solubility (µM)
Write the value in µM as a bare number.

Requested read-out: Solubility. Entry: C=CC(=O)N1CCCC(NC(=O)c2sc3nccc4c3c2NC(=O)N4c2cnc(CC(C)C)cc2C)C1 (stereo not shown) [J] 350

---

experiment: Epimerization kinetics / rotational energy barrier of atropisomers in solvents; type: physicochemical; conditions: IPA, t1/2 at 20° C.
assayEndpoint: half-life
Provide a numeric answer, followed by its unit.

Requested read-out: half-life. Entry: `C=CC(=O)N[C@H]1CCC[C@H]1NC(=O)c1sc2nccc3c2c1NC(=O)N3c1cnc(CC(C)C)cc1C` 2190 days

---

assay: Aqueous solubility at pH 2 and pH 7; format: physicochemical; settings: aqueous medium, simulated gastric fluid; Table 4; pH 2; read-out: Solubility pH 2
assayEndpoint: log10 of Solubility (log10 of the value in µM)
Each number you see is log10 of Solubility, and the unit inside the log is µM.

Requested read-out: log10 of Solubility. Entry: C=CC(=O)N1CCCC(NC(=O)c2sc3nccc4c3c2NC(=O)N4c2ccc(Oc3ccccc3)cn2)C1 (centres unmarked) 1.00

Same for C=CC(=O)N1CCCC(NC(=O)c2sc3nccc4c3c2NC(=O)N4c2cnc(Oc3ccccc3)cc2C)C1 (centres unmarked) 1.18

Same for C=CC(=O)N1CCCC(NC(=O)c2sc3nccc4c3c2NC(=O)N4c2ncc(Oc3ccccc3)cc2C)C1 (centres unmarked) 1.20

Same for C=CC(=O)N1CCCC(NC(=O)c2sc3nccc4c3c2NC(=O)N4c2cnc(OC3CCCC3)cc2C)C1 (centres unmarked) 1.18

Same for C=CC(=O)N1CCCC(NC(=O)c2sc3nccc4c3c2NC(=O)N4c2cnc(OC3CCC3)cc2C)C1 (centres unmarked) 1.00

Same for C=CC(=O)N1CCCC(NC(=O)c2sc3nccc4c3c2NC(=O)N4c2ccc(Oc3ccccc3)nc2)C1 (centres unmarked) 1.26

Same for C=CC(=O)N1CCCC(NC(=O)c2sc3nccc4c3c2NC(=O)N4c2cnc(OC(C)C)cc2C)C1 (centres unmarked) 2.08

---

target: BTK (Homo sapiens, UniProt Q06187); assay: BTK covalent inhibition kinetics (KI, kinact, kinact/KI); type: biochemical; conditions: Table 4; average of 2 independent determinations (± SD)
Sequence (Q06187 whole entry): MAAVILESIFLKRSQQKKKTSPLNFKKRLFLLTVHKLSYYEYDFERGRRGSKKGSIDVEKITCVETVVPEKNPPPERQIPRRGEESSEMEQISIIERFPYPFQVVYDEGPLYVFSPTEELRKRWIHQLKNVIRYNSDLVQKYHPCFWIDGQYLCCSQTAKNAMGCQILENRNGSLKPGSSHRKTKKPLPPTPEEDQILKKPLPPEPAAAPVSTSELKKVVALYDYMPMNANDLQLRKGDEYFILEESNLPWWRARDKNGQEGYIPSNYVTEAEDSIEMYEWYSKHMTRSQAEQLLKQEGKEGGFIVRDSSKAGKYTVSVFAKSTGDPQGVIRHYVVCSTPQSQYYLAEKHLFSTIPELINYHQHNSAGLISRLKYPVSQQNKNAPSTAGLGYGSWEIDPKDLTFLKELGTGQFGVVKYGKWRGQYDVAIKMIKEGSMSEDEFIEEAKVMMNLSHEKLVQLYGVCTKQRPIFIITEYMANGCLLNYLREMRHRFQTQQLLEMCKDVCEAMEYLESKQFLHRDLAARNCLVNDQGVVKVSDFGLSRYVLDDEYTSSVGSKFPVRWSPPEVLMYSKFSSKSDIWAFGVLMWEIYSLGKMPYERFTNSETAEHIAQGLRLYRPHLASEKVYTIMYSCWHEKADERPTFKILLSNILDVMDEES
Please respond with reported kinact for every item in the list.
Write the value in s⁻¹ as a bare number.

Requested read-out: kinact. Entry: C=CC(=O)N1CCCC(NC(=O)c2sc3nccc4c3c2NC(=O)N4c2cnc(CC(C)C)cc2C)C1 (stereo not drawn) 0.000319

Same for C=CC(=O)N1CCCC(NC(=O)c2sc3nccc4c3c2NC(=O)N4c2cnc(Oc3ccccc3)cc2C)C1 (stereo not drawn) 0.000352

Same for C=CC(=O)N1CCCC(NC(=O)c2sc3nccc4c3c2NC(=O)N4c2ccc(Oc3ccccc3)cn2)C1 (stereo not drawn) 0.000303

Same for C=CC(=O)N1CCCC(NC(=O)c2sc3nccc4c3c2NC(=O)N4c2ccc(Oc3ccccc3)nc2)C1 (stereo not drawn) 0.000278

Same for C=CC(=O)N1CCCC(NC(=O)c2sc3nccc4c3c2NC(=O)N4c2cnc(OC(C)C)cc2C)C1 (stereo not drawn) 0.000345

Same for C=CC(=O)N1CCCC(NC(=O)c2sc3nccc4c3c2NC(=O)N4c2ccc(Oc3ccccc3)cc2)C1 (stereo not drawn) 0.00039

Same for C=CC(=O)N1CCCC(NC(=O)c2sc3nccc4c3c2NC(=O)N4c2cnc(OC3CCC3)cc2C)C1 (stereo not drawn) 0.000316

Same for C=CC(=O)N1CCCC(NC(=O)c2sc3nccc4c3c2NC(=O)N4c2cnc(OC3CCCC3)cc2C)C1 (stereo not drawn) 0.000307

Same for C=CC(=O)N1CCCC(NC(=O)c2sc3nccc4c3c2NC(=O)N4c2ncc(Oc3ccccc3)cc2C)C1 (stereo not drawn) 0.000333

---

experiment: Aqueous solubility at pH 2 and pH 7; assay type: physicochemical; conditions: aqueous medium at pH 7, aqueous buffer; Table 4; pH 7; read-out: Solubility pH 7
assayEndpoint: Solubility (µM)
Write the value in µM as a bare number.

Requested read-out: Solubility. Entry: C=CC(=O)N1CCCC(NC(=O)c2sc3nccc4c3c2NC(=O)N4c2cnc(CC(C)C)cc2C)C1 (stereo not shown) 23

---

test: Epimerization kinetics / rotational energy barrier of atropisomers in solvents; type: physicochemical; conditions: propylene carbonate/water 93/7 w/w %, t1/2 at 20° C.
assayEndpoint: half-life (days)
Write the value in days as a bare number.

Requested read-out: half-life. Entry: `C=CC(=O)N[C@H]1CCC[C@H]1NC(=O)c1sc2nccc3c2c1NC(=O)N3c1cnc(CC(C)C)cc1C` 2560

---

test system: B-cell activation via B-cell receptor in rat whole blood; assay: Rat whole blood assay, anti-IgD stimulated B-cell activation; format: cell-based; settings: Rattus norvegicus, B-cell; anti-IgD stimulation
Please respond with reported IC50 for every item in the list.
Write the value in nM as a bare number.

Requested read-out: IC50. Entry: C=CC(=O)N[C@H]1CCC[C@H]1NC(=O)c1sc2nccc3c2c1NC(=O)N3c1cnc(CC(C)C)cc1C (single isomer, unassigned) 41

Same for `C=CC(=O)N1CC[C@@H](NC(=O)c2sc3nccc4c3c2NC(=O)N4c2ccc(Oc3ccccc3)cc2C)C1` 130

---

Please respond with reported Solubility for every item in the list.
assay: Aqueous solubility at pH 2 and pH 7; format: physicochemical; details: aqueous medium, simulated gastric fluid; Table 5; pH 2; read-out: Solubility pH 2

Requested read-out: Solubility. Entry: `C=CC(=O)NCCNC(=O)c1sc2nccc3c2c1NC(=O)N3c1cnc(CC(C)C)cc1C` > 400 µM

Same for C=CC(=O)N1CCC(NC(=O)c2sc3nccc4c3c2NC(=O)N4c2cnc(CC(C)C)cc2C)C1 (stereo not drawn) > 400 µM

Same for C=CC(=O)N[C@H]1CCC[C@H]1NC(=O)c1sc2nccc3c2c1NC(=O)N3c1cnc(CC(C)C)cc1C (single isomer, unassigned) 320 µM

---

Please respond with reported Solubility for every item in the list.
test: Aqueous solubility at pH 2 and pH 7; assay type: physicochemical; details: aqueous medium, aqueous buffer; Table 5; pH 7; read-out: Solubility pH 7
Write the value in µM as a bare number.

Requested read-out: Solubility. Entry: C=CC(=O)N1CCC(NC(=O)c2sc3nccc4c3c2NC(=O)N4c2cnc(CC(C)C)cc2C)C1 (centres unmarked) 172

Same for C=CC(=O)N[C@H]1CCC[C@H]1NC(=O)c1sc2nccc3c2c1NC(=O)N3c1cnc(CC(C)C)cc1C (single isomer, unassigned) 7

---

experiment: Epimerization kinetics / rotational energy barrier of atropisomers in solvents; assay type: physicochemical; details: 3-methyl-1-butanol, t1/2 at 20° C.
assayEndpoint: half-life (days)
Write the value in days as a bare number.

Requested read-out: half-life. Entry: `C=CC(=O)N[C@H]1CCC[C@H]1NC(=O)c1sc2nccc3c2c1NC(=O)N3c1cnc(CC(C)C)cc1C` 1100

---

assay: Epimerization kinetics / rotational energy barrier of atropisomers in solvents; assay type: physicochemical; settings: 2-MeTHF, t1/2 at 20° C.
assayEndpoint: half-life (days)
Write the value in days as a bare number.

Requested read-out: half-life. Entry: C=CC(=O)N[C@H]1CCC[C@H]1NC(=O)c1sc2nccc3c2c1NC(=O)N3c1cnc(CC(C)C)cc1C [Formula (II)] 1100

---

test: Epimerization kinetics / rotational energy barrier of atropisomers in solvents; format: physicochemical; conditions: EA, t1/2 at 20° C.
assayEndpoint: half-life (days)
Write the value in days as a bare number.

Requested read-out: half-life. Entry: `C=CC(=O)N[C@H]1CCC[C@H]1NC(=O)c1sc2nccc3c2c1NC(=O)N3c1cnc(CC(C)C)cc1C` 1460

---

assay: Epimerization kinetics / rotational energy barrier of atropisomers in solvents; assay type: physicochemical; details: 2-butanol/water 70/30 w/w %, t1/2 at 20° C.
assayEndpoint: half-life (days)
Write the value in days as a bare number.

Requested read-out: half-life. Entry: C=CC(=O)N[C@H]1CCC[C@H]1NC(=O)c1sc2nccc3c2c1NC(=O)N3c1cnc(CC(C)C)cc1C [Formula (II)] 1830

---

experiment: Epimerization kinetics / rotational energy barrier of atropisomers in solvents; format: physicochemical; conditions: buffer, t1/2 at 120° C.
assayEndpoint: half-life (min)
Write the value in min as a bare number.

Requested read-out: half-life. Entry: `C=CC(=O)N[C@H]1CCC[C@H]1NC(=O)c1sc2nccc3c2c1NC(=O)N3c1cnc(CC(C)C)cc1C` 6

# credit: patent US20250163076A1
